The origin of these recorded values is patent US20250230155A1.

study_target: human mAChR M4 (Homo sapiens, UniProt P08173)
Construct: expressed in transfected cells
Sequence (P08173 whole entry): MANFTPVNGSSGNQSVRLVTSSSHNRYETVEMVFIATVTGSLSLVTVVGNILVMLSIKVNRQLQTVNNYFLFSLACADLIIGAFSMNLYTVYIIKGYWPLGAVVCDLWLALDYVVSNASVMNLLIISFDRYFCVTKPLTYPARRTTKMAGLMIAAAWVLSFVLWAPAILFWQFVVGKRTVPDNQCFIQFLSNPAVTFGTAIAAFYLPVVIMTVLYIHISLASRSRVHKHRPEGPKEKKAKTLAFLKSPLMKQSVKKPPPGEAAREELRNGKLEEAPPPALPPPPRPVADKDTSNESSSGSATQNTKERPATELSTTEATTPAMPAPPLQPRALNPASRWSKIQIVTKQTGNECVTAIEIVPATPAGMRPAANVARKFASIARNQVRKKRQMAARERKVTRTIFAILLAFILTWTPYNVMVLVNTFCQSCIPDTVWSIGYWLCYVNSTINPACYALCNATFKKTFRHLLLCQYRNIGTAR
protocol_text: mAChR M4 cell-based functional assay (calcium mobilization, CHO-K1 hM4-Gqi5 cells)
condition_set: positive allosteric modulator activity, increase in the EC20 acetylcholine response, CHO-K1 hM4-Gqi5 cells; read-out: Human M4 EC50
pEC50: −log10 of the molar value.
experimental_endpoint: pEC50

I = Cc1cc(C(=O)N2CC(C)(F)C2)nnc1N1CCc2ncc(-c3ccnn3C)cc2C1
II = Cc1cc(C#N)cnc1N1CCc2ncc(Nc3cccc(C(F)(F)F)c3F)cc2C1
Exam item: Could you kindly indicate whether I or II has the higher pEC50 value? API: response body contains the label of the selected item.
Marked response: I
(I: 7.07, II: 5.84)
